Recorded SPOT peptide array binding signal intensity values for a group of binders are listed next.
- targetUnderTest: SpPex13
- experimentNotes: SPOT peptide array binding signal intensity (averaged, normalized) (arbitrary units (background-subtracted, floor 0; scale differs between SH3 domains)); higher = stronger binding of the SH3 domain to the peptide

>>> endpointresult("GAGERPRLVPRPINV")
"≤ 0"
>>> endpointresult("PSRRAPLQLPQLVNK")
"≤ 0"

Next binder, please.
Form: binder = VPKEPAPAPPPEPDM ; SPOT peptide array binding signal intensity = ≤ 0

Value source: the supplement of paper PMC4466140
